So I've got a bunch of binders here, and I need their binding by ELISA relative to parental values.
- target.of.assay: T1, recombinant human GPA ectodomain (human, UniProt P02724 20-91)
- T1 construct: also called recombinant hGPA ECD; recGPA
- T1 sequence: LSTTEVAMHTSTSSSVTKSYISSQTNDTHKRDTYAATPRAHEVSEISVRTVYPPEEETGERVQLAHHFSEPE
- experimental.protocol: ELISA, rec hGPA ectodomain
Returns: the value as a bare number; no unit string appended.

Provide one value: measured binding by ELISA relative to parental of TPP-5348 (Fab, V domains shown, also called VL: (S49A)) VH: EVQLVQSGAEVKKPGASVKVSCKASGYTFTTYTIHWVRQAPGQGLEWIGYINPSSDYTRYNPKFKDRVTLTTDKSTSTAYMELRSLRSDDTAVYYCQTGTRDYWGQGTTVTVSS VL: DIQLTQSPSFLSASVGDRVTITCSAASSVSYIYWFQQKPGKAPKLLIYATSTLPSGVPSRFSGSGSGTEYTLTISSLQPEDFATYYCHQRNSFPFTFGQGTKLEIKR 1.5

Provide one value: measured binding by ELISA relative to parental of TPP-5328 (Fab, V domains shown, also called VH: (K65Q)) VH: EVQLVQSGAEVKKPGASVKVSCKASGYTFTTYTIHWVRQAPGQGLEWIGYINPSSDYTRYNPKFQDRVTLTTDKSTSTAYMELRSLRSDDTAVYYCQTGTRDYWGQGTTVTVSS VL: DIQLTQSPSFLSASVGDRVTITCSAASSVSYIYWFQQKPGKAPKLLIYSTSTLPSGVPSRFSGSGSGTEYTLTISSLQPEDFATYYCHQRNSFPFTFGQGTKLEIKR 0.91

Provide one value: measured binding by ELISA relative to parental of TPP-5326 (Fab, V domains shown, also called VH: (N61A)) VH: EVQLVQSGAEVKKPGASVKVSCKASGYTFTTYTIHWVRQAPGQGLEWIGYINPSSDYTRYAPKFKDRVTLTTDKSTSTAYMELRSLRSDDTAVYYCQTGTRDYWGQGTTVTVSS VL: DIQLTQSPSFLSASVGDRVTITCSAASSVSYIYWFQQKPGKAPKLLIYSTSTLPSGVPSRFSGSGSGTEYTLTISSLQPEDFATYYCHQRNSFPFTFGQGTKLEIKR 0.53
